Origin of the recorded values: the supplement of paper PMC12042874

Test: amyloid nucleation score (Sup35N fusion, yeast selection) (log enrichment); library NNK3; higher = more nucleation; inactive = no reads after selection;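 further: zero at mode of non-aggregating sequences after 7 days selection at 30°C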

[
  {
    "seq-text": "TAGNWWNVCVNTFNRWRRLL",
    "amyloid nucleation score": "inactive"
  },
  {
    "seq-text": "PNIMCYLVAMCVGLKFPARW",
    "amyloid nucleation score": "inactive"
  },
  {
    "seq-text": "SCNFGANYNLKMIFIYVPWV",
    "amyloid nucleation score": 1.75
  },
  {
    "seq-text": "TLFERRCSGTIMHRIQRREF",
    "amyloid nucleation score": "inactive"
  }
]

* * *

Test: amyloid nucleation score (Sup35N fusion, yeast selection) (log enrichment); library NNK2; higher = more nucleation; inactive = no reads after selection
quantity: amyloid nucleation score

### Prompt Dear colleague, please send me the reported amyloid nucleation score for `IRSPDAVNSNCATPRMRVY` when you can.
### Response 0.499

### Prompt Look up amyloid nucleation score of `HYVSNEHSVRRTHHRKTKLT` and report it.
### Response 0.753

### Prompt Look up and state reported amyloid nucleation score for `IFNLSRAQTVINL`
### Response 5.34

### Prompt Let me know recorded amyloid nucleation score for `MQFLFK` , thanks.
### Response -1.33

* * *

Test: amyloid nucleation score (Sup35N fusion, yeast selection) (log enrichment); library NNK2; higher = more nucleation; inactive = no reads after selection
just bin them by amyloid nucleation score: class 1 (below -0.5), class 2 (-0.5 to below 1), class 3 (1 or more)

### Prompt Hey, which category is `LHIYTKVHRSR` in, do you know?
### Response class 3

### Prompt Which bin, given its amyloid nucleation score, does `FTSMLS` occupy?
### Response class 2

### Prompt Please classify: `CRHYKFV`
### Response class 2

### Prompt For `CSCMKFWKFLLIRQSYKPGM` , which amyloid nucleation score bin applies?
### Response class 3

### Prompt Returns: class label. Input: `YNLSSLLRCDLAAKTRTIFM`
### Response class 1

### Prompt Each substance maps to one class by amyloid nucleation score. Which class for `VSARGSWFLTTSAAC` ?
### Response class 1

### Prompt Assign a category based on measured amyloid nucleation score for `NSSPTSFLLIMSLNCCICVN` and give only the class name.
### Response class 3

### Prompt # classify by amyloid nucleation score band: `CYLVYFSYKLHQI`
### Response class 1

### Prompt Input `LCRMCIANCLMSCWESSYQV` ; output its category
### Response class 3

### Prompt Hi, small favor: classify `RAWKSPYCLNTRMSTEGHEY` by its amyloid nucleation score when you get a moment.
### Response class 2

### Prompt Determine which band this substance sits in: `SQRNTLEFVLAGYKTTLVIS`
### Response class 1

* * *

Assay: amyloid nucleation score (Sup35N fusion, yeast selection) (log enrichment); library NNK2; higher = more nucleation; inactive = no reads after selection
Each entry belongs to exactly one class, chosen by where its amyloid nucleation score falls: class A = under -0.2, class B = from -0.2 up to 0.3, class C = 0.3 and over

### Prompt Class? Entry: `AVHDGFDRNMAIKGTGGRWW`
### Response class C

### Prompt Lab log: `FRNSTATLYSVGSFTSKTQL` — assign amyloid nucleation score category
### Response class C

### Prompt Bin? `FFSVPGAWCDKWALALANY`
### Response class A

### Prompt Which band does `FVFVAARAFCRSVSNVSD` fall in?
### Response class A

### Prompt For the record `ARWLSSAYSMIYEFSLLKSW` , report the class its amyloid nucleation score corresponds to.
### Response class C

### Prompt Using the reported amyloid nucleation score, which band applies to `NLVTFVWKRYLINIISVTKD` ?
### Response class A

### Prompt Bin this entry: `MIVLIQKGLWGFDLQAVFVP`
### Response class A

### Prompt Band for the recorded amyloid nucleation score of `LKLRSVKSFDFVWMIVAAEV` ?
### Response class C

### Prompt Class label required: `STGCSYHFRMIHATVTTYFG`
### Response class C

### Prompt Which class holds `WSLQSQGYRILDGYGV` ?
### Response class C

### Prompt Which category fits this record: `WEDAVDSSVRFC`
### Response class A

### Prompt Hi there! Could you help me figure out the category for `SLNKNINRYFGFWYPDSPLL` please?
### Response class A

### Prompt Band for `RVCPLLYYGRDLLQLTMSSM` ?
### Response class C

### Prompt Class label required: `RMWCQVKS`
### Response class A

### Prompt Where would `VWGRMLRVGFGEV` land among the classes by reported amyloid nucleation score?
### Response class B

### Prompt Exam item: assign `YQSFFVINLYNGLHTRGMRV` to the correct category.
### Response class C

### Prompt Returns: class label. Input: `TLLLDQCDSRVDFWSNVP`
### Response class B

### Prompt Textbook exercise: identify the category of the substance given here, `LFFIIDNSQLSSSVDGLIVE` , according to its measured value.
### Response class A

### Prompt Band for `MGTHKTDGRRQYLVVSSCEV` ?
### Response class B

### Prompt Bin? `ECYETRTSMEY`
### Response class B

### Prompt Lab note: which band did `MCWVANNVTNPVEVEYERSL` land in?
### Response class A

### Prompt Into which bin does this substance go? `SLVENRVGISDVWKVSTLVG`
### Response class B

### Prompt Which class does `LYIYLNYFNTAVTFYGCVCS` fall in?
### Response class C

### Prompt Which category fits this record: `KFSVSLICYVTASRYSNYRE`
### Response class C

### Prompt Bin? `VQLDSSFLIM`
### Response class C

### Prompt Class for `FMMHRVSTRFASKNAS` ?
### Response class B

### Prompt // bin(item) where item = `SVLGTKVRVYRSGWTLRIFE`
### Response class A

### Prompt Field: class (amyloid nucleation score) — entry: `NRLLSVSEFAMDTRMRQEEA`
### Response class C

### Prompt For this substance, which bin applies? `AFELSVTLCSTEMLQHRCIG`
### Response class B

### Prompt Field: class (amyloid nucleation score) — entry: `KTHIREVCEGVTIIHKWTWV`
### Response class A

### Prompt Please classify: `CLFWLHQHMQYFHVMGLSPT`
### Response class C

### Prompt Band of `DSAGASFNSCCGAE` ?
### Response class B

### Prompt Bin? `STAKYVYYTLLR`
### Response class B

### Prompt Which class holds `VCWGFSFATHGLWDMAF` ?
### Response class A

### Prompt Which band does `SIFSIFWYV` fall in?
### Response class A

### Prompt Band for the recorded amyloid nucleation score of `TWQVMRRYLENPDGSL` ?
### Response class A

### Prompt Dear colleague, I would appreciate it if you could identify the bin for `FGFFTTYSELAVQVIQSAVT` and reply at your convenience.
### Response class B
